- experimental_details: full-length expression in HEK 293T (data not shown)
- experimental_conditions: glycan lost; control: WT full-length Ncr1
measured_attribute: localisation_or_trafficking

Any idea what localisation_or_trafficking was measured for Ncr1: Ncr1 T222A (protein) parent chain: MLPTLTALLCLGLCLSQRINTEKETLPKPIIWAKPSIMVTNGNSVNIWCQGAQSASEYQLYFEGSFFALERPKPSRSMNKVRFFISQMTSHTAGIYTCFYQSGELWSKSSNPLKLVVTGLYDTPNLWVYPRPEVTLGENVTFFCQLKTATSKFFLLKERGSNHIQNKYGNIQAEFPMGPVTRAHRGTYRCFGSYNDYAWSFPSEPVTLLITGGVENSSLAPTDPTSSLDYWEFDLSTNESGLQKDSAFWDHTTQNLIRIGLACIILITLVWLLTEDWLSKRKDHEEANRLTNWECRRRWRMQHYFEEEQRNAISMMELKATPGAL ?
no change

Same again, this time with Ncr1: Ncr1 T225A (protein) parent chain: MLPTLTALLCLGLCLSQRINTEKETLPKPIIWAKPSIMVTNGNSVNIWCQGAQSASEYQLYFEGSFFALERPKPSRSMNKVRFFISQMTSHTAGIYTCFYQSGELWSKSSNPLKLVVTGLYDTPNLWVYPRPEVTLGENVTFFCQLKTATSKFFLLKERGSNHIQNKYGNIQAEFPMGPVTRAHRGTYRCFGSYNDYAWSFPSEPVTLLITGGVENSSLAPTDPTSSLDYWEFDLSTNESGLQKDSAFWDHTTQNLIRIGLACIILITLVWLLTEDWLSKRKDHEEANRLTNWECRRRWRMQHYFEEEQRNAISMMELKATPGAL
no change
